- target_or_system: endogenous MLKL in MDF (Mus musculus (Mouse), UniProt Q9D2Y4)
- Sequence (Q9D2Y4 whole entry): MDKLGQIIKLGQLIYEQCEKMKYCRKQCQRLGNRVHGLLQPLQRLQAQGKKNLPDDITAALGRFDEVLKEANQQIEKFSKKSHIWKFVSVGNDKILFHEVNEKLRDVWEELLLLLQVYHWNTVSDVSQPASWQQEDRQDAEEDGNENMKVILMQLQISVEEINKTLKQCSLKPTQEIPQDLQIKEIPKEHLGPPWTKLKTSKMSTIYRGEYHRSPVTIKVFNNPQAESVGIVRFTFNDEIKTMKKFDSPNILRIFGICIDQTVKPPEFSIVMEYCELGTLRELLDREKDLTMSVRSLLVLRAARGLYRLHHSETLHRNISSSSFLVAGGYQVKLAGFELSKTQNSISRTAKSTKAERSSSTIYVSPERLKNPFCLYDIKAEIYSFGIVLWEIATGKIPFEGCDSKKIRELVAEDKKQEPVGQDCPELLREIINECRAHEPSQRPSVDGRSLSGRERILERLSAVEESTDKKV
- assay_procedure: Degradation assay: endogenous MLKL in MDF (western blot)
- assay_conditions: MDF cells, 24 h incubation with compound, MLKL adjusted for loading with GAPDH, normalized to DMSO only control, read-out: Degradation of endogenous MLKL in MDF (DC50 cell-based assay)
readout: DC50

Please review the following examples before continuing.
- molecule: "C[C@H](Oc1cc(-c2nn(C)c3c(-c4cnn(C5CCN(CCCC6CCN(c7cccc8c7C(=O)N(C7CCC(=O)NC7=O)C8=O)CC6)CC5)c4)cnc(N)c23)ccc1NS(=O)(=O)C(F)F)c1ccc(F)cc1 (stereo partly shown)"
  observed: "1 to 10 µM"
- molecule: "C[C@H](Oc1cc(-c2nn(C)c3c(-c4cnn(CCCCCCCOc5cccc6c5C(=O)N(C5CCC(=O)N(C)C5=O)C6=O)c4)cnc(N)c23)ccc1NS(=O)(=O)C(F)F)c1ccc(F)cc1 (stereo partly shown)"
  observed: "< 1 µM"
- molecule: "C[C@H](Oc1cc(-c2nn(C)c3c(-c4cnn(C5CCN(C(=O)[C@H]6C[C@H](Nc7cccc8c7C(=O)N(C7CCC(=O)NC7=O)C8=O)C6)CC5)c4)cnc(N)c23)ccc1NS(=O)(=O)C(F)F)c1ccc(F)cc1 (stereo partly shown)"
  observed: "< 1 µM"

Next:
Give DC50 for this entry on endogenous MLKL in MDF (Mus musculus (Mouse), UniProt Q9D2Y4): C[C@H](Oc1cc(-c2nn(C)c3c(-c4cnn(C5CCN(C(=O)CCC6CCN(c7cccc8c7C(=O)N(C7CCC(=O)NC7=O)C8=O)CC6)CC5)c4)cnc(N)c23)ccc1NS(=O)(=O)C(F)F)c1ccc(F)cc1 (stereo partly shown)
< 1 µM

Reference for the values: patent US20250115598A1
